System: Erwinia amylovora PMV6076
experimentSummary: MIC, growth inhibition in microtiter plates (TSB)
Type: cell-based
reportedConditions: Ea, 25°C, 48 h, OD 600 nm, lowest concentration with no growth, given as interval of tested concentrations, three replicates, experiment repeated twice
Experimental: […] Three replicates for each combination of strain, compound and concentration were used. Microbial growth was determined by optical density measurement at 600 nm (Bioscreen C, Labsystem, Helsinki, Finland). For antibacterial activity microplates were incubated at 25°C with 20 s shaking before hourly absorbance measurement for 48 h. For antifungal activity microplates were incubated at 22°C with 1 min shaking before absorbance measurement that were done every two hours during seven days. […]
Listing: MIC of selected compounds
endpoint: MIC

[[record]]
compound = "CCCC(=O)NCCCC[C@H](NC(=O)[C@H](CCCCN)NC(=O)[C@H](Cc1ccccc1)NC(=O)[C@H](CC(C)C)NC(=O)[C@H](CCCCN)NC(=O)[C@H](CCCCN)NC(C)=O)C(=O)N[C@H](C(=O)N[C@@H](CC(C)C)C(=O)N[C@@H](CCCCN)C(=O)N[C@@H](Cc1ccc(O)cc1)C(=O)N[C@@H](CC(C)C)C(N)=O)[C@@H](C)CC [BP385, Ac-KKLFKK(COC3H7)ILKYL-NH2]"
result = "6.2 to 12.5 µM"

[[record]]
compound = "CCCCCC(=O)NCCCC[C@H](NC(=O)[C@H](CCCCN)NC(=O)[C@H](CCCCN)NC(C)=O)C(=O)N[C@@H](Cc1ccccc1)C(=O)N[C@@H](CCCCN)C(=O)N[C@@H](CCCCN)C(=O)N[C@H](C(=O)N[C@@H](CC(C)C)C(=O)N[C@@H](CCCCN)C(=O)N[C@@H](Cc1ccc(O)cc1)C(=O)N[C@@H](CC(C)C)C(N)=O)[C@@H](C)CC [BP370, Ac-KKK(COC5H11)FKKILKYL-NH2]"
result = "3.1 to 6.2 µM"

[[record]]
compound = "CCCCCC(=O)NCCCC[C@H](NC(C)=O)C(=O)N[C@@H](CCCCN)C(=O)N[C@@H](CC(C)C)C(=O)N[C@@H](Cc1ccccc1)C(=O)N[C@@H](CCCCN)C(=O)N[C@@H](CCCCN)C(=O)N[C@H](C(=O)N[C@@H](CC(C)C)C(=O)N[C@@H](CCCCN)C(=O)N[C@@H](Cc1ccc(O)cc1)C(=O)N[C@@H](CC(C)C)C(N)=O)[C@@H](C)CC [BP368, Ac-K(COC5H11)KLFKKILKYL-NH2]"
result = "6.2 to 12.5 µM"

[[record]]
compound = "CCCCCC(=O)N[C@@H](CCCCN)C(=O)N[C@@H](CCCCN)C(=O)N[C@@H](CC(C)C)C(=O)N[C@@H](Cc1ccccc1)C(=O)N[C@@H](CCCCN)C(=O)N[C@@H](CCCCN)C(=O)N[C@H](C(=O)N[C@@H](CC(C)C)C(=O)N[C@@H](CCCCN)C(=O)N[C@@H](Cc1ccc(O)cc1)C(=O)N[C@@H](CC(C)C)C(N)=O)[C@@H](C)CC [BP367, C5H11CO-KKLFKKILKYL-NH2]"
result = "3.1 to 6.2 µM"

[[record]]
compound = "CCCC(=O)NCCCC[C@H](NC(=O)[C@H](CCCCN)NC(=O)[C@H](CCCCN)NC(C)=O)C(=O)N[C@@H](Cc1ccccc1)C(=O)N[C@@H](CCCCN)C(=O)N[C@@H](CCCCN)C(=O)N[C@H](C(=O)N[C@@H](CC(C)C)C(=O)N[C@@H](CCCCN)C(=O)N[C@@H](Cc1ccc(O)cc1)C(=O)N[C@@H](CC(C)C)C(N)=O)[C@@H](C)CC [BP382, Ac-KKK(COC3H7)FKKILKYL-NH2]"
result = "6.2 to 12.5 µM"

